These data points were gathered from the supplement of paper PMC13380429.

test system: Calu-3; assay: cell viability relative to DMSO; higher = less toxic; settings: 72 h; 10000 nM
Hi! Just check whether cell viability is below 80%. Below gives Condition met, equal or above gives Condition not met.

compound="NC[C@H]1O[C@H](O[C@H]2[C@H](O)[C@@H](O[C@H]3O[C@H](CO)[C@@H](O)[C@H](N)[C@H]3O)[C@H](N)C[C@@H]2N)[C@H](O)[C@@H](O)[C@@H]1O [kanamycin]" test_target=Calu-3 answer_label="Condition not met"
compound="C=C(C)CN1CC[C@]23c4c5ccc(O)c4O[C@H]2c2[nH]c4ccccc4c2C[C@@]3(O)C1C5 [SDM25N]" test_target=Calu-3 answer_label="Condition not met"
compound="O=C1COc2nccc(-c3ccccc3F)c2CN1Cc1cc(C(F)(F)F)cc(C(F)(F)F)c1 [GPBAR-A]" test_target=Calu-3 answer_label="Condition met"
compound="C[C@@H](O)[C@H]1C(=O)N2C(C(=O)O)=C(S[C@@H]3CN[C@H](C(=O)Nc4cccc(C(=O)O)c4)C3)[C@H](C)[C@H]12 [ertapenem]" test_target=Calu-3 answer_label="Condition not met"
compound="CC(C)(C)c1cc(C=C(C#N)C#N)cc(C(C)(C)C)c1O [tyrphostin-A9]" test_target=Calu-3 answer_label="Condition met"
compound=COc1cc2c(Nc3ccc(NC(=O)c4ccccc4)cc3)ncnc2cc1OCCCN1CCOCC1 test_target=Calu-3 answer_label="Condition not met"
